Biological target: Recombinant ROCK1 (amino acids 1-477) (Homo sapiens)
Construct: Recombinant ROCK1 (amino acids 1-477); by word order, ROCK1 from Carna Biosciences
Sequence (Q13464 1-477): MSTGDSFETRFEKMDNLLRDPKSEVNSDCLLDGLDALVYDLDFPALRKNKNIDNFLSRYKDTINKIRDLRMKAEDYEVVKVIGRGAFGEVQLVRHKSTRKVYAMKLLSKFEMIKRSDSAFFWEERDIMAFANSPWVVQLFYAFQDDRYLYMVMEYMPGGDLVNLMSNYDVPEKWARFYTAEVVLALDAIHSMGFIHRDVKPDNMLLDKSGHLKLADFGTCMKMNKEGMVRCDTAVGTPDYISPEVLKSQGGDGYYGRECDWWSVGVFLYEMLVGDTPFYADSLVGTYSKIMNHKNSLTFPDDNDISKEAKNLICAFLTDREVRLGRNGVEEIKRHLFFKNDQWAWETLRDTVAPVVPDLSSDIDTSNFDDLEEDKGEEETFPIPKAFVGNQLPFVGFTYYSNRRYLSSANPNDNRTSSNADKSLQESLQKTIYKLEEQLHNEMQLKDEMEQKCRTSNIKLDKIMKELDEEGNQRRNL
Assay: ROCK inhibition assay, LANCE Ultra TR-FRET kinase assay (ROCK1)
Conditions: 1 μM ATP, 50 nM ULight-CREBtide substrate
Procedure: Kinase IC50 was determined through an in vitro assay based on LANCE Ultra TR-FRET (Time-Resolved Fluorescence Resonance Energy Transfer) homogeneous technologies method (Perkin Elmer). […] Compound activities were measured by Envision and IC50s were calculated. […] The reaction was incubated for 1 hour, and the signal was read in Envision in TR-FRET mode (excitation at 320 nm and emission at 615/665 nm). […]
MEASURE_NAME: IC50

For every listed record, write down its IC50.
1. CNC(=O)c1cccc(Cn2ccc3cc(-c4cc[nH]c4C)ccc3c2=O)c1
2. Cn1nccc1-c1ccc2c(=O)n(Cc3cc(F)cc(C(=O)N[C@H]4CC[C@@H](O)CC4)c3)ccc2c1
3. Nc1cc(-c2ccc3c(=O)n(Cc4cccc(C(=O)Nc5ccc6c(c5)CCNC6)c4)ccc3c2)ccn1
4. Cc1[nH]ncc1-c1ccc2c(=O)n(C(CO)c3cccc(Cl)c3)cnc2c1 (centres unmarked)
5. COc1cccc(Cn2ccc3cc(-c4cn[nH]c4)ccc3c2=O)c1
6. [2H]C([2H])([2H])NC(=O)c1cccc([C@@H](C)n2cnc3cc(-c4conc4C)ccc3c2=O)c1
7. O=C(Nc1cccc(Cn2ccc3cc(-c4c[nH]nc4Cl)ccc3c2=O)c1)C1COC1

Found:
1. 101 to 500 nM
2. 101 to 500 nM
3. 11 to 100 nM
4. 11 to 100 nM
5. 101 to 500 nM
6. 11 to 100 nM
7. 101 to 500 nM

Lookup: Sample COc1cccc(Cn2cnc3cc(-c4ccnn4C)ccc3c2=O)c1 — what was its IC50?
Found: 11 to 100 nM
